This collection of values is drawn from patent US20190071490A1.

Target: T1, rat α-CGRP (Rattus norvegicus, UniProt P01256)
T1 construct: rat α (1-37); purchased GenScript Corporation or Global Peptide Services
T1 sequence (P01256 83-119 limits assumed): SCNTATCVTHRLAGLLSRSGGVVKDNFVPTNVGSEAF
Test: Biacore SPR affinity of Fab fragments to N-biotinylated rat α-CGRP on SA chip
Format: binding
Conditions: 37° C., screening mode except underlined values
α-rat koff listing for selected molecules.
ASSAY_METRIC: α-rat koff

{"MOLECULE": "M41: G1 variant; L1 R28N; L2 G50A L56T; H2 E54K A57N E64D; HC-FW3 L99T A100V (antibody, V domains shown) VH: EVQLVESGGGLVQPGGSLRLSCAASGFTFSNYWISWVRQAPGKGLEWVAEIRSKSDNSATHYADAVKGRFTISRDNAKNSLYLQMNSLRAEDTAVYYCTVYFDYGLAIQNYWGQGTLVTVSS VL: EIVLTQSPATLSLSPGERATLSCKASKNVTTYVSWYQQKPGQAPRLLIYAASNRYTGIPARFSGSGSGTDFTLTISSLEPEDFAVYYCSQSYNYPYTFGQGTKLEIK", "ASSAY_METRIC": "α-rat koff", "RECORDED_VALUE": "0.00453 s⁻¹"}
{"MOLECULE": "M24: G1 variant; L1 R28L; HC-FW3 L99T A100V (antibody, V domains shown) VH: EVQLVESGGGLVQPGGSLRLSCAASGFTFSNYWISWVRQAPGKGLEWVAEIRSESDASATHYAEAVKGRFTISRDNAKNSLYLQMNSLRAEDTAVYYCTVYFDYGLAIQNYWGQGTLVTVSS VL: EIVLTQSPATLSLSPGERATLSCKASKLVTTYVSWYQQKPGQAPRLLIYGASNRYLGIPARFSGSGSGTDFTLTISSLEPEDFAVYYCSQSYNYPYTFGQGTKLEIK", "ASSAY_METRIC": "α-rat koff", "RECORDED_VALUE": "0.00104 s⁻¹"}
